Entries and their cell viability values follow.
Tested on: Caco-2
assayDetails: cell viability relative to DMSO; higher = less toxic
studyConditions: 72 h; 1 nM
Answer format: numeric, % implied, no suffix.

                                   compound  target  observed
0    NC(N)=Nc1nc(CSCC/C(N)=N/S(N)(=O)=O)cs1  Caco-2       107
1  CN(Cc1ccccc1)C(=O)[C@H](Cc1ccc2ccccc2c1)NC(=O)[C@@H]1C[C@@H](O)CN1C(=O)c1cn(C)c2ccccc12  Caco-2      99.7
2  COc1cc2c(cc1OC)CC(=O)N(CCCN(C)C[C@H]1Cc3cc(OC)c(OC)cc31)CC2  Caco-2      98.3
3  Cc1c(C)c2c(c(C)c1O)CCC(C)(C(=O)O)O2 (stereo unspecified)  Caco-2       106
4  CC(=O)[C@H]1CC[C@H]2[C@@H]3C[C@H](C)C4=CC(=O)CC[C@]4(C)[C@H]3[C@@H](O)C[C@]12C  Caco-2      90.4

cell viability reported for this compound CN[C@H](CC(=O)O)C(=O)O : 101

----------
Measured cell viability by item
Tested on: Caco-2
assayDetails: cell viability relative to DMSO; higher = less toxic
studyConditions: 72 h; 10 nM
Lab book: enter the figure in %, no units written.

In [3]: df
Out[3]:
                                   compound    readoutlabel  observed
0    O=C1CC[C@@H](C(=O)N2CSC[C@H]2C(=O)O)N1  cell viability      91.6
1  c1ccc(Cn2c(-c3ccc(OC[C@H](C4CCNCC4)n4c(-c5ccccc5)nc5ccccc54)cc3)nc3ccccc32)cc1  cell viability      87.8
2  N#Cc1cccc(-c2c[nH]c3ncnc(N4CCOCC4)c23)c1  cell viability      98.2
3  C[C@]12CCC(=O)C[C@@H]1CC[C@@H]1[C@@H]2CC[C@]2(C)C=CC[C@@H]12  cell viability       104

// sample O=c1c(O)c(-c2cc(O)c(O)c(O)c2)oc2cc(O)cc(O)c12 , its cell viability was 99.2

cell viability measured on CCOc1ccc2nc(SCCN3CCOCC3)[nH]c2c1 = 110

Lookup result for O=C(Nc1ccc(C(O)(C(F)(F)F)C(F)(F)F)cc1)c1ccc(C(F)(F)F)cc1 ; measured cell viability: 99.6

The recorded cell viability for CN(C)CCOC(c1ccc(Cl)cc1)c1ccccn1 (centres undefined) is 98.7

According to the records, this compound Clc1cccc(Nc2nnc(-c3ccccc3)c3ccccc23)c1 displays cell viability of 104

----------
System: Calu-3
assayDetails: cell viability relative to DMSO; higher = less toxic
studyConditions: 72 h; 1000 nM
readoutLabel: cell viability (%)
Please respond with the number in % and leave the unit unwritten.

Worked set:
                                   compound  observed
0  CC1(C)CCC(C)(C)c2cc(C#Cc3ccc(C(=O)O)cc3)ccc21 [EC-23]      63.9
1  COc1ccc2cccc(CCNC(C)=O)c2c1 [agomelatine]      88.4
2  CC(=O)N(c1onc(C)c1C)S(=O)(=O)c1ccc(N)cc1 [sulfisoxazole-acetyl]       102
3  CC1=C(C(=O)OC2CCCCC2)C(c2ccc([N+](=O)[O-])cc2)C2=C(CC(C)(C)CC2=O)N1 (stereo not given) [FLI-06]       106

// next entry
Item O=c1c(O)c(-c2cc(O)c(O)c(O)c2)oc2cc(O)cc(O)c12 [myricetin] ; assay system Calu-3; cell viability reported as 102
